Reference source for all entries: the supplement of paper PMC10567573

B1: NR2F2 (parent)
chain: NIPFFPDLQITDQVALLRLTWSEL

variants of: B1; assay: protein stability index of a GFP-peptide fusion (GPS, HEK-293T) (PSI 1-6); higher = more stable; conditions: c terminus: a fixed tail appended;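 also: lentivirally expressed fusions sorted by FACS into six bins by GFP to DsRed ratio, PSI derived from sequencing read proportions per bin multiplied by bin number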
Label scheme, based on protein stability index: class 1 (below 2), class 2 (2 to below 3), class 3 (3 or more)

Query: Which category does the recorded protein stability index put `L19C` in?
Response: class 2

Query: Which category does the recorded protein stability index put `R18Q` in?
Response: class 2

Query: Which category does the recorded protein stability index put `R18V` in?
Response: class 2

Query: Which category does the recorded protein stability index put `I2C` in?
Response: class 2

Query: Which category does the recorded protein stability index put `I2M` in?
Response: class 2

Query: Which category does the recorded protein stability index put `A15Q` in?
Response: class 1

Query: Which category does the recorded protein stability index put `F4N` in?
Response: class 2

Query: Which category does the recorded protein stability index put `S22W` in?
Response: class 3

Query: Which category does the recorded protein stability index put `L17K` in?
Response: class 2

Query: Which category does the recorded protein stability index put `V14H` in?
Response: class 1

Query: Which category does the recorded protein stability index put `L19N` in?
Response: class 2

Query: Which category does the recorded protein stability index put `T20L` in?
Response: class 2
